# experiment_notes: PAMPA-GI permeability
# Assay type: in vitro ADME
# measurement_conditions: pH 5.0 in donor and acceptor, 16 h of incubation (table title), 2% Tween 80, 10% MeOH, read-out: PAMPA-GI permeability P e
readout_kind: Papp at 16 h (×10⁻⁶ cm/s)
Just the number please, in ×10⁻⁶ cm/s, no unit attached.

Q: # return recorded Papp at 16 h for entry C=CCSC[C@H](NC(C)=O)C(=O)Oc1cc(C(C)C)ccc1C [codrug 4, N-Ac-Cys(Allyl)-CAR]
Ans: 8.6

###

# experiment_notes: Kinetics of chemical hydrolysis in buffers
# Assay type: physicochemical
# measurement_conditions: hydrochloric acid buffer pH 1.3 (non-enzymatic SGF), pH 1.3, 37°C, read-out: t½ (converted)
readout_kind: half-life at 9.1 µM (h)
Just the number please, in h, no unit attached.

Q: # return recorded half-life at 9.1 µM for entry C=CCSC[C@H](NC(C)=O)C(=O)Oc1cc(C(C)C)ccc1C [codrug 4, N-Ac-Cys(Allyl)-CAR]
Ans: 75.4
